// data source = patent US9340577B2

target: DRB5*0101 (Homo sapiens, UniProt P01903+Q30154); experiment: biochemical; conditions: Binding affinity DRB5 *0101
metric name: IC50

Use the examples below as a reference point.
molecule="CC[C@H](C)[C@H](NC(=O)[C@H](C)NC(=O)[C@H](CCCCN)NC(=O)[C@@H](N)Cc1c[nH]cn1)C(=O)N[C@@H](CCC(=O)O)C(=O)N[C@@H](CC(C)C)C(=O)N[C@@H](CCC(N)=O)C(=O)N[C@@H](CCSC)C(=O)N[C@@H](C)C(=O)N[C@@H](CC(C)C)C(=O)N[C@@H](CCC(N)=O)C(=O)NCC(=O)N[C@@H](CC(C)C)C(=O)N[C@@H](C)C(=O)N[C@@H](CCC(N)=O)C(=O)O [Peptide 89.0160]" test_system="DRB5*0101 (Homo sapiens, UniProt P01903+Q30154)" metric_name=IC50 reported="> 20 µM"
molecule="CC[C@H](C)[C@H](NC(=O)[C@H](C)NC(=O)[C@H](CCCCN)NC(=O)[C@H](Cc1c[nH]cn1)NC(=O)[C@H](C)NC(=O)[C@H](CCCCN)NC(=O)[C@H](CO)NC(=O)[C@H](CCCCN)NC(=O)[C@H](CO)NC(=O)[C@@H](NC(=O)[C@H](CC(N)=O)NC(=O)[C@H](Cc1ccc(O)cc1)NC(=O)[C@H](C)N)[C@@H](C)CC)C(=O)N[C@@H](CCC(=O)O)C(=O)N[C@@H](CC(C)C)C(=O)O [Peptide 89.0159]" test_system="DRB5*0101 (Homo sapiens, UniProt P01903+Q30154)" metric_name=IC50 reported="> 20 µM"
molecule="CC[C@H](C)[C@H](NC(=O)[C@@H](NC(=O)[C@@H]1CCCN1C(=O)[C@@H](NC(=O)[C@@H](NC(=O)[C@H](CC(N)=O)NC(=O)CNC(=O)[C@H](CO)NC(=O)[C@H](CS)NC(=O)[C@@H](NC(=O)[C@H](CCCCN)NC(=O)[C@@H](N)CCCNC(=N)N)C(C)C)[C@@H](C)O)[C@@H](C)O)[C@@H](C)CC)C(=O)N[C@@H](Cc1c[nH]cn1)C(=O)N[C@@H](CC(C)C)C(=O)N[C@@H](CCCCN)C(=O)O [Peptide 1601.43]" test_system="DRB5*0101 (Homo sapiens, UniProt P01903+Q30154)" metric_name=IC50 reported="18 µM"
molecule="CSCC[C@H](NC(=O)[C@H](Cc1ccc(O)cc1)NC(=O)[C@H](Cc1ccc(O)cc1)NC(=O)[C@@H](NC(=O)[C@H](CO)NC(=O)[C@H](CC(=O)O)NC(=O)[C@H](Cc1c[nH]c2ccccc12)NC(=O)[C@H](C)NC(=O)[C@@H](N)C(C)C)C(C)C)C(=O)N[C@H](C(=O)N[C@@H](CC(=O)O)C(=O)N[C@@H](C)C(=O)NCC(=O)N[C@H](C(=O)N[C@@H](Cc1c[nH]c2ccccc12)C(=O)O)[C@@H](C)O)[C@@H](C)O [Peptide 1601.10]" test_system="DRB5*0101 (Homo sapiens, UniProt P01903+Q30154)" metric_name=IC50 reported="> 20 µM"

Enquiry: Any idea what IC50 came out for CC(C)C[C@H](NC(=O)[C@H](CC(=O)O)NC(=O)[C@@H](NC(=O)[C@@H](NC(=O)[C@H](CCC(=O)O)NC(=O)[C@@H]1CCCN1C(=O)[C@H](CCC(N)=O)NC(=O)[C@H](CC(C)C)NC(=O)[C@H](CC(=O)O)NC(=O)[C@@H](N)CC(C)C)[C@@H](C)O)[C@@H](C)O)C(=O)N[C@@H](Cc1ccc(O)cc1)C(=O)N[C@@H](CS)C(=O)N[C@@H](Cc1ccc(O)cc1)C(=O)N[C@@H](CCC(=O)O)C(=O)N[C@@H](CCC(N)=O)C(=O)O [Peptide 1543.04] on DRB5*0101 (Homo sapiens, UniProt P01903+Q30154)?
Return: > 20 µM
